- ASSAY SYSTEM: Human ALK (Homo sapiens (Human))
- Sequence (Q9UM73 19-1620): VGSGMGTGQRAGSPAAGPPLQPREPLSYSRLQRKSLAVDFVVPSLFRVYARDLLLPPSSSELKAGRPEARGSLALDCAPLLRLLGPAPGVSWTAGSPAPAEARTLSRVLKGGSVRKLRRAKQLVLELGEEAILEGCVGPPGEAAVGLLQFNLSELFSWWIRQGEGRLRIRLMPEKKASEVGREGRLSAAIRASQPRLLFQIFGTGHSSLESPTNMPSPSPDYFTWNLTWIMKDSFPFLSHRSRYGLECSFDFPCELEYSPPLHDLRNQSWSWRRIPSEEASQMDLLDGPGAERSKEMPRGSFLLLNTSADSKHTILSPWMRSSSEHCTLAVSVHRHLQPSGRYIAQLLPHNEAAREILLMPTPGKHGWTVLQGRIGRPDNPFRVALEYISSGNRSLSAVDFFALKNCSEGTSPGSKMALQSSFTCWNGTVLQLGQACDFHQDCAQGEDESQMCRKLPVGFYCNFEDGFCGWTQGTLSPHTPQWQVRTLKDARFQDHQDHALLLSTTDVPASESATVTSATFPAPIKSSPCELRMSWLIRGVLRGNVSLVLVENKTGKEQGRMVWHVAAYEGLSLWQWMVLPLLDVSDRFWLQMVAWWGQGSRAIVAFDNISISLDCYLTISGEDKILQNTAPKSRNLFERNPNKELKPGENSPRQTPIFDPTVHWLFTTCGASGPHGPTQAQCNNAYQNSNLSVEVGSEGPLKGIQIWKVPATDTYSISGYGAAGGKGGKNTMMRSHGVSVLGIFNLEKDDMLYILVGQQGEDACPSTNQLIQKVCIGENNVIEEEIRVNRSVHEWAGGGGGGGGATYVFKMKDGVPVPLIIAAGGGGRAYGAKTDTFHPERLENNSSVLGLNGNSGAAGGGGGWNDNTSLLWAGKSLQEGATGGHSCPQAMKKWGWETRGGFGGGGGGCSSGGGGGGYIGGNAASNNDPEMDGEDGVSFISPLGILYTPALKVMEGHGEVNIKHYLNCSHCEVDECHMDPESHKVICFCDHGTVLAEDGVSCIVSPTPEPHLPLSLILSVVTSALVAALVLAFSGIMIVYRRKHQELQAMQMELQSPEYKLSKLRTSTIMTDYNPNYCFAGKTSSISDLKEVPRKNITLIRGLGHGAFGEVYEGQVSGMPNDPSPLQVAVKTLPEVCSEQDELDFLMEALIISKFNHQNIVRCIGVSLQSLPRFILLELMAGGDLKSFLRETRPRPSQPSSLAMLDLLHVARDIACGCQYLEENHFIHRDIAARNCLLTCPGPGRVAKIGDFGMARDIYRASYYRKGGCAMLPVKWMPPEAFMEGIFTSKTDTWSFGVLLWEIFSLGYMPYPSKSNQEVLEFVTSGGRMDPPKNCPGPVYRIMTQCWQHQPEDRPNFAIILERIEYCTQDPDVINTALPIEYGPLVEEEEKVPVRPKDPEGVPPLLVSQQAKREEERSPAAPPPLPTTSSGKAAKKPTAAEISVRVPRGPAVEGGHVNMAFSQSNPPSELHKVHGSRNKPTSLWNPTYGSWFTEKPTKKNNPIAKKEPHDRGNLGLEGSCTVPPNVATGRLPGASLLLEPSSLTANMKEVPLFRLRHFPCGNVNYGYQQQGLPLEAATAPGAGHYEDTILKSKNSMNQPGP
compounds and their reported pIC50
Quick note: pIC50 means taking -log10 of the concentration in moles per liter.

Before answering, review these 2 worked examples.
- COMPOUND: "C[C@@H](Oc1cc(-c2cnn(C3CC4(CNC4)C3)c2)cnc1N)c1c(Cl)ccc(F)c1Cl"
  pIC50: 8.66
- COMPOUND: "C[C@@H](Oc1cc(-c2cnn(C3CCC4(CC3)CNC4)c2)cnc1N)c1c(Cl)ccc(F)c1Cl"
  pIC50: 8.37

Note: attention shifts to another entry.
query: Report pIC50 for C[C@@H](Oc1cc(-c2cnn(C3CC4(CCCNC4)C3)c2)cnc1N)c1c(Cl)ccc(F)c1Cl (stereo partly drawn) please.
result: 8.72
